Below, each of the molecules is paired with its reported melting point value.

>>> value_measured("CC(C)CC(=O)Nc1cccc(-c2ccnc3c(-c4ccc(CO)cc4)cnn23)c1")
"170 to 172 °C"

Quick note, melting point for CC1COCC(C)N1c1ccc(-c2nc(C(=O)Nc3nccs3)c(-c3ccc(Cl)cc3)[nH]2)cc1 (stereo not given) landed at > 250 °C

Quick note, melting point for `O=C1NCCN(c2ccc(Cc3ccc(Cl)cc3)c(Cl)c2)N1` landed at 157 to 158 °C

Quick note, melting point for `C=CCN(CC=C)Cc1noc(-c2ncn3c2[C@@H]2CCN2C(=O)c2c-3ccc(F)c2Cl)n1` landed at 127 °C

Quick note, melting point for COC(=O)C1(c2ccc([N+](=O)[O-])cc2)CO1 (stereo not given) landed at 78 to 82 °C

Quick note, melting point for `CCOP(=O)(Cc1cc(C)c(O)c(C)c1)OCC` landed at 65 °C

Quick note, melting point for `C=CCOC(=O)c1c(C)nc2[nH]c3ccccc3c2c1N` landed at 220 to 222 °C

Quick note, melting point for `Cc1cc(-c2cccc(NC(=O)C3CC3)c2)n2ncc(C(=O)c3cccs3)c2n1` landed at 184 to 186 °C

Quick note, melting point for CCOC(=O)c1ccc(C(C(N)=O)C(Cc2ccccc2)c2ccccc2N2CCCCC2)cc1 (stereo not given) landed at 161 to 162 °C

Quick note, melting point for `N#CCc1ccccc1Oc1ccc(Br)cc1` landed at 56 to 58 °C

Values from a melting point compilation (Tetko et al.; mined from patent text by program, amines drawn as free bases though some values may be those of a salt)
